The measurements presented in this section are drawn from paper PMC3921099.

# target: α1β2δ receptors (Rattus norvegicus, UniProt P62813+P63138)
# Sequence (P62813 28-455): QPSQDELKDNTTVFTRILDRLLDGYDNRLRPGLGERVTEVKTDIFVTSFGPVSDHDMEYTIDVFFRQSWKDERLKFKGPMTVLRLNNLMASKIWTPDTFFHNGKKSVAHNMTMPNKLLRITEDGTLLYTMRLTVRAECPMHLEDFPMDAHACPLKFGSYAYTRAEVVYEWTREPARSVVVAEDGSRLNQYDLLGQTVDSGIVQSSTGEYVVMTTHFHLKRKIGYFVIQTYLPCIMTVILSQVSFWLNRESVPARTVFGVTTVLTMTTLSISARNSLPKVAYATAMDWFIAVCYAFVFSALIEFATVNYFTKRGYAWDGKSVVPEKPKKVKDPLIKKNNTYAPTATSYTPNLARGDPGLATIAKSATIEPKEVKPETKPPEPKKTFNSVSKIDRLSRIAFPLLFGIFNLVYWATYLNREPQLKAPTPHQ
# Sequence (P63138 25-474 limits assumed): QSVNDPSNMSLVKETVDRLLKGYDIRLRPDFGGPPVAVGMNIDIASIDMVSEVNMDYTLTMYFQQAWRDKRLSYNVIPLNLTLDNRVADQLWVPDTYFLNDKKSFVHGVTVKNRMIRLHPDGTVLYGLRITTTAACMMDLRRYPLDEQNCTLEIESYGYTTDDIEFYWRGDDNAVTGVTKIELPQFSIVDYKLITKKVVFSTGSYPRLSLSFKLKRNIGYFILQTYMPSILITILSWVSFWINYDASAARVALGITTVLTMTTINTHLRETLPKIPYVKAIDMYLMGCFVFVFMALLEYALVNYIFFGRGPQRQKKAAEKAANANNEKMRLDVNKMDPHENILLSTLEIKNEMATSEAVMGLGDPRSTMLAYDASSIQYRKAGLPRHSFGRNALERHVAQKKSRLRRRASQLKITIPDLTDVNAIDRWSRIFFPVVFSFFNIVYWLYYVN
# Sequence (P18506 17-449 partner limits assumed): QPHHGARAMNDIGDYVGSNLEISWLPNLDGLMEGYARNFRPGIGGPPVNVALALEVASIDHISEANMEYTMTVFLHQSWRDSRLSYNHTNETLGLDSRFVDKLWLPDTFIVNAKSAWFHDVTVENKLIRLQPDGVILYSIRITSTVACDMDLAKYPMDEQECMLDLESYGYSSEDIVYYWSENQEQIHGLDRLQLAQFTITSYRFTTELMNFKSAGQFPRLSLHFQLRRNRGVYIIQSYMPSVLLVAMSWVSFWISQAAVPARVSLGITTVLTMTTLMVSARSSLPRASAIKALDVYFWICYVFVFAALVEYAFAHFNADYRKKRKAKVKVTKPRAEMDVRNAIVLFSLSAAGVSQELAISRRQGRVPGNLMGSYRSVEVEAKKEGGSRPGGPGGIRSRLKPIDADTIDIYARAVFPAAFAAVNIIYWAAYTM
# run.description: Two electrode voltage clamp in Xenopus oocytes, modulation of GABA EC3 current
pEC50: −log10 of the molar value.
endpoint: pEC50

INSERT INTO results (compound, target, endpoint, experimental_result) VALUES
  ('COc1ccc2[nH]cc3c(=O)n(-c4ccc(C#N)cc4)nc-3c2c1 [LAU 177]', 'α1β2δ receptors (Rattus norvegicus, UniProt P62813+P63138)', 'pEC50', '< 4.97');
